# PROTOCOL_SUMMARY: Phase 1 study, MAD cohorts: plasma pharmacokinetics
# Format: in vivo, human
# APPLIED_CONDITIONS: both sexes, human, plasma, oral, 12 mg, healthy subjects, MAD Day 14, 12 mg, fed; median; read-out: t1/2 (converted)
ENDPOINT: half-life (h)

>>> df
                                 smiles_str   endpoint  data_value
0  N#Cc1cccc(C#N)c1-c1c(-c2cccc(-c3ccc(C(=O)NCC(=O)O)cc3Cl)c2)n(S(=O)(=O)c2ccc(C(F)F)cc2)c2ccc(F)cc12  half-life        1.74

---

# ASSAY_SYSTEM: LXRβ (Homo sapiens)
# Sequence (P55055 whole entry, the tested form may be a part): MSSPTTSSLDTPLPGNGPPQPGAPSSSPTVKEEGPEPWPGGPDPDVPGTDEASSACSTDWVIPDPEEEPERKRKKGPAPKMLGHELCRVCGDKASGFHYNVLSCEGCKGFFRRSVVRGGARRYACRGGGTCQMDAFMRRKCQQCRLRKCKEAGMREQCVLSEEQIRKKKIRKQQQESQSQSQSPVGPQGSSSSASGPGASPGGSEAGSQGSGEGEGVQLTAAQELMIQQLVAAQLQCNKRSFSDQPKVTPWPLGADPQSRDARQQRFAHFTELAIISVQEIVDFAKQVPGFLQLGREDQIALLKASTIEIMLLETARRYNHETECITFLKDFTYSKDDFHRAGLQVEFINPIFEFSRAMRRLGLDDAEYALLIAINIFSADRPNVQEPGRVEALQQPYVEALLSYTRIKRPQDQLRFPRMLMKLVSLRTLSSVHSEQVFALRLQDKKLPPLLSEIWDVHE
# PROTOCOL_SUMMARY: LXR Gal4 reporter transient transfection assay (mammalian two-hybrid, HEK293), LXRβ
# Type: cell-based
# Set-up: LXRβ (amino acids 156-461); expressed in transfected cells; host or cells: HEK293
# APPLIED_CONDITIONS: full length (FL) LXRβ, HEK293; read-out: FL-M2H Gal4β
Here the recorded EC50 is given for each entry.
ENDPOINT: EC50

MOLECULE	ASSAY_SYSTEM	DATA_VALUE
Cc1n[nH]c(C)c1-c1c(-c2cccc(-c3ccc(C(=O)O)cc3Cl)c2)n(S(=O)(=O)c2ccc(C(F)F)cc2)c2ccc(F)cc12 [11/24]	LXRβ (Homo sapiens)	100 to 1000 nM
O=C(O)c1ccc(-c2cccc(-c3c(-c4ccccc4C4(F)CNC4)c4cc(F)ccc4n3S(=O)(=O)c3ccc(C(F)F)cc3)c2)c(Cl)c1 [3/61]	LXRβ (Homo sapiens)	100 to 1000 nM
Cc1ccc(S(=O)(=O)n2c(-c3cccc(C4CC4C(=O)O)c3)c(-c3ccsc3C#N)c3ncccc32)cc1 (stereo not shown) [Compound 4]	LXRβ (Homo sapiens)	100 to 1000 nM
Cc1ccc(S(=O)(=O)n2c(-c3cccc(N4CC(C(=O)O)C4)c3)c(-c3sccc3C#N)c3cc(F)ccc32)cc1 [3/25]	LXRβ (Homo sapiens)	< 100 nM
CC(O)(C(=O)O)c1ccc(-c2cccc(-c3c(-c4c(C#N)cccc4C#N)c4cc(F)ccc4n3S(=O)(=O)c3ccc(C(F)F)cc3)c2)c(Cl)c1 (stereo not shown) [11/60]	LXRβ (Homo sapiens)	< 100 nM
Cc1cccc(C)c1-c1c(-c2cccc(-c3ccc(C(=O)O)cc3Cl)c2)n(S(=O)(=O)c2ccc(C(F)F)cc2)c2ccc(F)cc12 [11/14]	LXRβ (Homo sapiens)	< 100 nM
Cc1ccc(S(=O)(=O)n2c(-c3cccc(-c4ccc(C(=O)O)cc4Cl)c3)c(-c3c(C)cccc3C#N)c3cc(F)ccc32)cc1 [11/6]	LXRβ (Homo sapiens)	< 100 nM
CCc1ccc(S(=O)(=O)n2c(-c3cccc(N4CC(C(=O)O)C4)c3)c(-c3ccsc3C#N)c3cc(F)ccc32)cc1 [3/10]	LXRβ (Homo sapiens)	< 100 nM
N#Cc1sccc1-c1c(-c2cccc(-c3ccc(C(=O)O)cc3Cl)c2)n(S(=O)(=O)c2ccc(C(F)(F)F)nc2)c2ccc(F)cc12 [11/16]	LXRβ (Homo sapiens)	< 100 nM
N#Cc1cccc(C#N)c1-c1c(-c2cccc(-c3ccc(C(=O)NCC(=O)O)cc3Cl)c2)n(S(=O)(=O)c2ccc(C(F)F)cc2)c2ccc(F)cc12 [Compound 21/3]	LXRβ (Homo sapiens)	< 100 nM
COc1cccc(-c2c(-c3cccc(-c4ccc(C(=O)O)cc4Cl)c3)n(S(=O)(=O)c3ccc(C)cc3)c3ccc(F)cc23)c1C#N [11/3]	LXRβ (Homo sapiens)	< 100 nM
Cc1ccc(S(=O)(=O)n2c(-c3cccc(-c4ccc(CO)c(S(=O)(=O)CC(=O)O)c4)c3)c(-c3ccsc3C#N)c3ccccc32)cc1 [5/1]	LXRβ (Homo sapiens)	100 to 1000 nM
CC1(C)CCN(S(=O)(=O)n2c(-c3cccc(-c4ccc(C(=O)O)cc4)c3)c(-c3ccsc3C#N)c3ccccc32)CC1 [3/66]	LXRβ (Homo sapiens)	100 to 1000 nM
